Data credit: ChEMBL document CHEMBL1153827

target: Aminopeptidase N (Sus scrofa, UniProt P15145); assay: Inhibition of pig kidney microsomal aminopeptidase N after 30 mins by UV-VIS spectrophotometry; settings: read-out: IC50
Sequence (P15145 whole entry): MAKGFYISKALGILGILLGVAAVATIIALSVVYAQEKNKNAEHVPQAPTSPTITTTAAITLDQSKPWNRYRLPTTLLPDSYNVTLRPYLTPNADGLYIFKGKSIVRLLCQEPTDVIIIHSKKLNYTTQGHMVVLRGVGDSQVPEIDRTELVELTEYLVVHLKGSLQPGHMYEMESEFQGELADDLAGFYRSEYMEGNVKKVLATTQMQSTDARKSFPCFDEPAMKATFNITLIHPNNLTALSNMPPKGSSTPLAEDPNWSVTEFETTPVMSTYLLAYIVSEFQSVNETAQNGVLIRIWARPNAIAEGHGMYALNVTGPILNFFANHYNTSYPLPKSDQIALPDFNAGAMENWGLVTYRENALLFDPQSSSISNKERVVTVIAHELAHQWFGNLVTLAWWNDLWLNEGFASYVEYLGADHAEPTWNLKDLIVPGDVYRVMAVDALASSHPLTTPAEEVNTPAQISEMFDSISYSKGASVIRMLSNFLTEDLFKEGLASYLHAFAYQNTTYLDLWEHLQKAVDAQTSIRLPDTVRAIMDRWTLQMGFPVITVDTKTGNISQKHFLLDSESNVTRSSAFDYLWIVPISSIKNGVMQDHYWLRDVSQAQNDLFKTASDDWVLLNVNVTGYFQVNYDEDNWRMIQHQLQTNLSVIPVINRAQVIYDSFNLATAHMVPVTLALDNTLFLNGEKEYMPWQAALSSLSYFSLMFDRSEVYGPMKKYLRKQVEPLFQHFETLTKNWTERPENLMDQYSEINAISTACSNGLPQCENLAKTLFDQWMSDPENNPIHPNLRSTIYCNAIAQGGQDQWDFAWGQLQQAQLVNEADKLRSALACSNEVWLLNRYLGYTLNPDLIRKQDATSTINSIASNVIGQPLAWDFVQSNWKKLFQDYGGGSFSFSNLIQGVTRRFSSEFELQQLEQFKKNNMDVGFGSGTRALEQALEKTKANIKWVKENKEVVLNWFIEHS
pIC50: −log10 of the molar value.
Classification field: TRUE = pIC50 at or over 4; FALSE = pIC50 under 4.

compound	target-or-system	label
COc1ccc(/C=C/C(=O)N[C@@H](CCC(=O)O)C(=O)Nc2ccc(Br)cc2)cc1OC	Aminopeptidase N (Sus scrofa, UniProt P15145)	TRUE
COc1ccc(/C=C/C(=O)N[C@@H](CCC(=O)O)C(=O)NCC(C)C)cc1OC	Aminopeptidase N (Sus scrofa, UniProt P15145)	FALSE
COc1ccc(/C=C/C(=O)N[C@@H](CCC(=O)Nc2ccccc2F)C(=O)Nc2ccccc2F)cc1OC	Aminopeptidase N (Sus scrofa, UniProt P15145)	FALSE
COc1ccc(/C=C/C(=O)N[C@@H](CCC(=O)O)C(=O)Nc2ccc(F)cc2)cc1OC	Aminopeptidase N (Sus scrofa, UniProt P15145)	TRUE
COC(=O)CNC(=O)[C@H](CCC(=O)O)NC(=O)/C=C/c1ccc(OC)c(OC)c1	Aminopeptidase N (Sus scrofa, UniProt P15145)	TRUE
COc1ccc(/C=C/C(=O)N[C@@H](CCC(=O)Nc2ccc(F)cc2)C(=O)Nc2ccc(F)cc2)cc1OC	Aminopeptidase N (Sus scrofa, UniProt P15145)	FALSE
COC(=O)CC(NC(=O)CC[C@H](NC(=O)/C=C/c1ccc(OC)c(OC)c1)C(=O)NC(CC(=O)OC)C(=O)OC)C(=O)OC (some centres undefined)	Aminopeptidase N (Sus scrofa, UniProt P15145)	FALSE
